- Test system: PPARg DBDmut:RXRa IVT, anti-PPARg (DBD mutation: PPARg1 K132A/R137A, NR concentration 270 nM, RXRa partner concentration 90 nM)
- protocol_summary: PBM binding z-score (relative to random genomic background probes); higher = stronger binding; sequences stand for … in GC…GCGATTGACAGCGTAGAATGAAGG
Measured PBM binding z-score values are reported for all entries that follow.
Lab note: jot down the number only; don't add units.

Below are worked cases with known answers.
>  <sequence_text>
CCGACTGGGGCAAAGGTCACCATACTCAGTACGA

>  <PBM binding z-score>
0.0184

$$$$
>  <sequence_text>
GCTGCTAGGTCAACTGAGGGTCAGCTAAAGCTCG

>  <PBM binding z-score>
-0.389

$$$$

Form field: reported PBM binding z-score of `TAGCCTAGGTCACGGGCCAGTATACCACGCGAAC` 0.69

Form field: reported PBM binding z-score of `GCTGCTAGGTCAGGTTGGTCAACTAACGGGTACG` -0.717

Form field: reported PBM binding z-score of `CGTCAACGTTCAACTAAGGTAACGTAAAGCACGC` 0.181

Form field: reported PBM binding z-score of `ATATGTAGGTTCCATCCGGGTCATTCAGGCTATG` 1.99

====

- System: PPARg:RXRa 30nM:10nM, anti-RXR (NR concentration 30 nM, RXRa partner concentration 10 nM)
- protocol_summary: PBM binding z-score (relative to random genomic background probes); higher = stronger binding; sequences stand for … in GC…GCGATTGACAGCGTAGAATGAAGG
Could you label it condition met if measured PBM binding z-score is 3 or higher, and condition not met otherwise?

Examples with answers:
>  <sequence_text>
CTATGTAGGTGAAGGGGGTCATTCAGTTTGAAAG

>  <discrete_label>
condition met

$$$$
>  <sequence_text>
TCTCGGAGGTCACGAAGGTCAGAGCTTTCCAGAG

>  <discrete_label>
condition met

$$$$
>  <sequence_text>
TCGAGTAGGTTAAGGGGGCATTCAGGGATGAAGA

>  <discrete_label>
condition met

$$$$

Decide: is the reported value of PBM binding z-score for `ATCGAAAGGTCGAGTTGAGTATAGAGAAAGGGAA` equal to or greater than 3? condition not met

Decide: is the reported value of PBM binding z-score for `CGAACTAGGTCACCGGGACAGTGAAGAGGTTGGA` equal to or greater than 3? condition met

====

- Test system: FXR:RXRa (NR concentration 270 nM, RXRa partner concentration 90 nM)
- protocol_summary: PBM binding z-score (relative to random genomic background probes); higher = stronger binding; sequences stand for … in GC…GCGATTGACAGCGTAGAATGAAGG
The recorded PBM binding z-score of each item maps onto one of these classes: lower level (below 3), middle level (3 to below 6), upper level (6 or more)

Examples with answers:
>  <sequence_text>
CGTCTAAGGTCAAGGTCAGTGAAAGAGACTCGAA

>  <experimental_system>
FXR:RXRa (NR concentration 270 nM, RXRa partner concentration 90 nM)

>  <discrete_label>
upper level

$$$$
>  <sequence_text>
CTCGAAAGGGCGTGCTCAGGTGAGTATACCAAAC

>  <experimental_system>
FXR:RXRa (NR concentration 270 nM, RXRa partner concentration 90 nM)

>  <discrete_label>
lower level

$$$$
>  <sequence_text>
TCGAGTAGGTTACGGGGGCACTCAGGGATGAAGA

>  <experimental_system>
FXR:RXRa (NR concentration 270 nM, RXRa partner concentration 90 nM)

>  <discrete_label>
lower level

$$$$

Now, please, on to the next sequence.
Each sequence maps to one class by PBM binding z-score. Which class for `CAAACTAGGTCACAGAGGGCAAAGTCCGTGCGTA` ? middle level

====

- System: PXR:RXRa (NR concentration 270 nM, RXRa partner concentration 90 nM)
- protocol_summary: PBM binding z-score (relative to random genomic background probes); higher = stronger binding; sequences stand for … in GC…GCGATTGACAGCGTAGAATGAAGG
Measured PBM binding z-score values are reported for all entries that follow.
Lab note: jot down the number only; don't add units.

Below are worked cases with known answers.
>  <sequence_text>
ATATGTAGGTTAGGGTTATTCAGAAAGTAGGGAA

>  <value_observed>
2.33

$$$$
>  <sequence_text>
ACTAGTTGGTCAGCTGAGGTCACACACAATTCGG

>  <value_observed>
5.47

$$$$
>  <sequence_text>
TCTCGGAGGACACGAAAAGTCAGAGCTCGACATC

>  <value_observed>
-0.0938

$$$$
>  <sequence_text>
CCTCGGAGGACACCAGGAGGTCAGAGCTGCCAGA

>  <value_observed>
2.17

$$$$
>  <sequence_text>
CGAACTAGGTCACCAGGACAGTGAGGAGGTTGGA

>  <value_observed>
0.988

$$$$
>  <sequence_text>
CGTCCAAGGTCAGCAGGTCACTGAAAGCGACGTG

>  <value_observed>
4.71

$$$$

Form field: reported PBM binding z-score of `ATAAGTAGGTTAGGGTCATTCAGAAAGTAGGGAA` 4.78

Form field: reported PBM binding z-score of `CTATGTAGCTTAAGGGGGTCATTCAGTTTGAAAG` 5.52

Form field: reported PBM binding z-score of `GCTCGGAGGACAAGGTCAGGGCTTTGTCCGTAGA` 2.03

Form field: reported PBM binding z-score of `TGTCAAAGCTCAAAGGTAACGTAAGTATCCACAC` 0.078

Form field: reported PBM binding z-score of `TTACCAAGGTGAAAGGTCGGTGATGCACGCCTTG` 2.17

Form field: reported PBM binding z-score of `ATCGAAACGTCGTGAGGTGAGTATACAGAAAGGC` -0.306

====

- Test system: VDR homodimer (NR concentration 270 nM)
- protocol_summary: PBM binding z-score (relative to random genomic background probes); higher = stronger binding; sequences stand for … in GC…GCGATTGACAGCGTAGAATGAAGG
Measured PBM binding z-score values are reported for all entries that follow.

Below are worked cases with known answers.
>  <sequence_text>
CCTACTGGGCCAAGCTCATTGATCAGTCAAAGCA

>  <experimental_system>
VDR homodimer (NR concentration 270 nM)

>  <PBM binding z-score>
-0.851

$$$$
>  <sequence_text>
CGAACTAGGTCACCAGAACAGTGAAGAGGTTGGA

>  <experimental_system>
VDR homodimer (NR concentration 270 nM)

>  <PBM binding z-score>
0.565

$$$$
>  <sequence_text>
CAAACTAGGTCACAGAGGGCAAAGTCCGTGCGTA

>  <experimental_system>
VDR homodimer (NR concentration 270 nM)

>  <PBM binding z-score>
4.18

$$$$
>  <sequence_text>
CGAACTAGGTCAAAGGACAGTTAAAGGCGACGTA

>  <experimental_system>
VDR homodimer (NR concentration 270 nM)

>  <PBM binding z-score>
0.768

$$$$
>  <sequence_text>
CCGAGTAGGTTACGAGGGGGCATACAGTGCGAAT

>  <experimental_system>
VDR homodimer (NR concentration 270 nM)

>  <PBM binding z-score>
2.68

$$$$

Query sequence follows.
Form field: reported PBM binding z-score of `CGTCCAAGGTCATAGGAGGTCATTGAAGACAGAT` 6.14

====

- System: RARg:RXRa (NR concentration 270 nM, RXRa partner concentration 90 nM)
- protocol_summary: PBM binding z-score (relative to random genomic background probes); higher = stronger binding; sequences stand for … in GC…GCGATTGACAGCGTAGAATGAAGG
measured_property: PBM binding z-score
Lab note: jot down the number only; don't add units.

Below are worked cases with known answers.
>  <sequence_text>
GATACAAGGTCAGCTAGAGGCCAGAGTATGGAAA

>  <PBM binding z-score>
6.83

$$$$
>  <sequence_text>
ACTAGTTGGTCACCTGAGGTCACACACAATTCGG

>  <PBM binding z-score>
4.66

$$$$
>  <sequence_text>
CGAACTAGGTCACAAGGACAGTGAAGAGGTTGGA

>  <PBM binding z-score>
4.24

$$$$
>  <sequence_text>
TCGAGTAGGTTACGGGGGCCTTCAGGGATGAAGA

>  <PBM binding z-score>
1.81

$$$$
>  <sequence_text>
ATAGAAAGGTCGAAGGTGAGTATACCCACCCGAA

>  <PBM binding z-score>
4.23

$$$$

Form field: reported PBM binding z-score of `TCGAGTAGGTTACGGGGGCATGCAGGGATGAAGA` 3.5

Form field: reported PBM binding z-score of `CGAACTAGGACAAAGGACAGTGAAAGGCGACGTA` 0.618

Form field: reported PBM binding z-score of `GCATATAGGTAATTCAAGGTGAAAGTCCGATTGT` 0.546

Form field: reported PBM binding z-score of `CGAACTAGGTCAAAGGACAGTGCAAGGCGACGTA` 3.95

Form field: reported PBM binding z-score of `CCGAGTAGGTTACGAGGGGGTATTCAGTGCGAAT` 1.98

Form field: reported PBM binding z-score of `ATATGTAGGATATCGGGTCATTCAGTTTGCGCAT` 1.75

Form field: reported PBM binding z-score of `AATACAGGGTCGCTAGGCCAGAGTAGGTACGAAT` 1.37

Form field: reported PBM binding z-score of `CTATGTAGGTTAAGGGGGTAATTCAGTTTGAAAG` 2.06

Form field: reported PBM binding z-score of `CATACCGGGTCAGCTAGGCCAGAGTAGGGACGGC` 3.47

Form field: reported PBM binding z-score of `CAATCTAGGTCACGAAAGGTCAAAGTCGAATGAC` 8.09

Form field: reported PBM binding z-score of `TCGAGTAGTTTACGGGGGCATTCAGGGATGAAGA` 2.16

Form field: reported PBM binding z-score of `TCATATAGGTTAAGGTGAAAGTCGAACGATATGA` 2.3

Form field: reported PBM binding z-score of `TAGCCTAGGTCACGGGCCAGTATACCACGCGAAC` 5.12

Form field: reported PBM binding z-score of `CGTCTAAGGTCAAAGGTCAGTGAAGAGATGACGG` 8.98

Form field: reported PBM binding z-score of `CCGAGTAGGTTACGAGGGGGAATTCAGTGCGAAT` 1.53

Form field: reported PBM binding z-score of `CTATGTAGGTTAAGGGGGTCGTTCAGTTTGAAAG` 2.9

Form field: reported PBM binding z-score of `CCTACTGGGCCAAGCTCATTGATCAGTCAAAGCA` -0.314

Form field: reported PBM binding z-score of `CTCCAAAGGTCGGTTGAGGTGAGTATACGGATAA` 2.87

Form field: reported PBM binding z-score of `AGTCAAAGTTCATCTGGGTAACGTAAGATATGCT` 5.32

Form field: reported PBM binding z-score of `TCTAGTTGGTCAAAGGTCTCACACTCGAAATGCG` 1.78
